- test_description: Unbound fraction in CD1 mouse plasma
- Assay type: ADME, cell-free
property: fraction unbound
Returns: the value as a bare number; no unit string appended.

Noted for "CN1CCN(CCCS(=O)(=O)c2ccc3nc(NC(=O)NC(=O)c4ccccc4Cl)sc3c2)CC1" : its fraction unbound reads 0.13

Noted for "CN1CCC(S(=O)(=O)c2ccc3nc(NC(=O)NC(=O)c4cc(N5CCOCC5)ccc4Cl)sc3c2)CC1" : its fraction unbound reads 0.009

Noted for "CN1CCN(CCCS(=O)(=O)c2ccc3nc(NC(=O)NC(=O)c4cc(N5CCOCC5)ccc4Cl)sc3c2)CC1" : its fraction unbound reads 0.006

###

- test_description: Cmax in Han-Wistar rat at 2 mg/kg, po
- Format: ADME, organism-based
- Parameters: dose 2 mg/kg, route oral
- run_parameters: in vivo
Below, each entry is listed with its recorded Cmax.
Field: numeric (nM). Do not append units.

Example compounds with recorded Cmax:
[
  {
    "test_smiles": "CN1CCN(CCCS(=O)(=O)c2ccc3nc(NC(=O)NC(=O)c4ccccc4Cl)sc3c2)CC1",
    "property": "Cmax",
    "unit_descriptor": "nM",
    "reported": 340
  },
  {
    "test_smiles": "CN1CCN(CCCS(=O)(=O)c2ccc3nc(NC(=O)NC(=O)c4cc(N5CCOCC5)ccc4Cl)sc3c2)CC1",
    "property": "Cmax",
    "unit_descriptor": "nM",
    "reported": 580
  }
]

Proceed to the following item.
Noted for "CN1CCC(S(=O)(=O)c2ccc3nc(NC(=O)NC(=O)c4cc(N5CCOCC5)ccc4Cl)sc3c2)CC1" : its Cmax reads 4500

Data provenance is ChEMBL document CHEMBL3352721.
